- measurement conditions: rat, in vivo, po
reported metric: AUC compared to dextrorphan tartrate

Consider the worked cases shown below.
- compound: "CC(=O)N[C@H](C)C(=O)Oc1ccc2c(c1)[C@]13CCCC[C@@H]1C(C2)N(C)CC3 [3-(N-Ac-D-Ala)-dextrorphan]"
  value measured: "much smaller"
- compound: "CC(=O)N[C@@H](C)C(=O)Oc1ccc2c(c1)[C@]13CCCC[C@@H]1C(C2)N(C)CC3 [3-(N-Ac-L-Ala)-dextrorphan]"
  value measured: "much smaller"
- compound: "CC(=O)N[C@@H](Cc1ccccc1)C(=O)Oc1ccc2c(c1)[C@]13CCCC[C@@H]1[C@H](C2)N(C)CC3 [3-(N-Ac-L-Phe)-dextrorphan]"
  value measured: "much smaller"
- compound: "CC(=O)N[C@@H](CCC(=O)O)C(=O)Oc1ccc2c(c1)[C@]13CCCC[C@@H]1C(C2)N(C)CC3 [3-(N-Ac-L-Glu)-dextrorphan]"
  value measured: "much smaller"

### Prompt Name the reported AUC compared to dextrorphan tartrate value associated with the compound CC(=O)N[C@H](CCC(=O)O)C(=O)Oc1ccc2c(c1)[C@]13CCCC[C@@H]1C(C2)N(C)CC3 [3-(N-Ac-D-Glu)-dextrorphan]
### Response much smaller

Ref: patent US20260098013A1
